tested on: Pseudomonas cannbina pv. alisalensis on Chinese cabbage; type: in vivo; conditions: in vivo
endpoint: Percentage of disease control B (%)
Kindly answer with a numeric value in %, unit omitted.

INSERT INTO assay_data (molecule, unit_symbol, numeric_value) VALUES
  ('O=S1(=O)N=C(OCc2snc(Cl)c2Cl)c2ccccc21', '%', 0),
  ('CC(N)CC(=O)O (stereo not shown)', '%', 46),
  ('O=C(O)c1cc(Cl)nc(Cl)c1', '%', 83);

Pending molecule:
Per the reported Pseudomonas cannbina pv. alisalensis on Chinese cabbage data, `C=CCOC1=NS(=O)(=O)c2ccccc21` has Percentage of disease control B of 25

----------
Collected Percentage of disease control B values appear next to each entry.
test system: Phakopsora pachyrhizi on soybean; test: Asian rust on soybean, greenhouse disease control; type: in vivo; details: Combinations with Chitooligosaccharides; B alone 100 ppm; leaf spray
Kindly answer with a numeric value in %, unit omitted.

INSERT INTO measurements (compound, numeric_value) VALUES
  ('C=CCOC1=NS(=O)(=O)c2ccccc21', 7),
  ('O=S1(=O)N=C(OCc2snc(Cl)c2Cl)c2ccccc21', 53),
  ('CC(N)CC(=O)O (stereo not shown)', 0);

Per the reported Phakopsora pachyrhizi on soybean data, `N#Cc1ccccc1NC(=O)c1snc(Cl)c1Cl` has Percentage of disease control B of 20
